Listed binders paired with reported pKd
# SYSTEM_UNDER_TEST: F-actin (filaments assembled from rabbit skeleton muscle actin) (rabbit, UniProt P68135 1-377)
# MEASUREMENT_DESCRIPTION: co-sedimentation; high speed (100,000 x g, 20 min, 25 °C); 2 uM F-actin with a range of concentrations of the MBP-msfGFP fusion; SDS-PAGE; Hill fit
# PARTICULARS: both partners purified
pKd field: float, defined as -log10 of concentration (mol/L).

BINDER	pKd
SLRRLDLQLEEITRQCSDIQKQLFMEDRE (domain or fragment, XopR of Xcc, HH motif; also called chimeric protein HH; source: E. coli BL21 (DE3) Rosetta, purified; not shown: MBP, N-terminal, kept; msfGFP, C-terminal, kept) [MBP-HH-msfGFP]	5.90

Need pKd, item SLRRLDLQLEEITRQCSDIQKQLFMEDREATPQEQHLLKTRAA (domain or fragment, XopR of Xcc, EHWH2 stretch; also called chimeric protein EHWH2; source: E. coli BL21 (DE3) Rosetta, purified; not shown: MBP, N-terminal, kept; msfGFP, C-terminal, kept) [MBP-EHWH2-msfGFP] 6.00
